Target: PD-1/PD-L1 interaction (PD-1-Ig / PD-L1-His) (Homo sapiens)
Construct: hPDL1(18-239)-TVMV-His; TVMV protease site linker (C); made in house; host or cells: HEK293T
Sequence (Q9NZQ7 with tags, fused parts or gaps): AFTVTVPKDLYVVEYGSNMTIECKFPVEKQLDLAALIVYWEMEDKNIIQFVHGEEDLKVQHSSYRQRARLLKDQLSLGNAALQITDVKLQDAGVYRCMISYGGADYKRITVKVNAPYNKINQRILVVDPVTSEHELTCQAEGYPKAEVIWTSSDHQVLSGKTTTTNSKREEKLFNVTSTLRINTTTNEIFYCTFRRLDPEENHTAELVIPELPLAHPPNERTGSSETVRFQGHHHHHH
Test: PD-1/PD-L1 Homogenous Time-Resolved Fluorescence (HTRF) binding assay
Conditions: IC50 range class; PD-L1-His 10 nM, PD-1-Ig 20 nM; read-out: Range or IC50
Structures can show the parent of a compound that is named as a salt.
measurement type: IC50

Past entries and their recorded results:
[[record]]
molecule = "Cc1c(COc2cc(OCc3cncc(C#N)c3)c(Cl)cc2Cl)cccc1-c1cccc(COc2cc(OCc3cncc(C#N)c3)c(CN[C@H](C(=O)O)[C@@H](C)[C@H](C)O)cc2Cl)c1C"
measurement_type = "IC50"
recorded_measurement = "90.1 to 1000 nM"

[[record]]
molecule = "Cc1c(COc2cc(OCc3cncc(C#N)c3)c(CN[C@H](C(=O)O)[C@@H](C)O)cc2Cl)cccc1-c1cccc(COc2cc(OCc3cncc(C#N)c3)c(CN[C@H](C(=O)O)[C@@H](C)O)cc2Cl)c1C"
measurement_type = "IC50"
recorded_measurement = "0.04 to 20 nM"

[[record]]
molecule = "Cc1c(COc2cc(OCc3ccc(-n4cccn4)nc3)c(CN(C)C(C)(C)C(=O)O)cc2Cl)cccc1-c1cccc(COc2cc(OCc3ccc(-n4cccn4)nc3)c(CN(C)C(C)(C)C(=O)O)cc2Cl)c1C"
measurement_type = "IC50"
recorded_measurement = "0.04 to 20 nM"

[[record]]
molecule = "Cc1c(COc2cc(OCc3cncc(C#N)c3)c(CN[C@@H](C(=O)O)[C@H](C)O)cc2Cl)cccc1-c1cccc(COc2cc(OCc3cncc(C#N)c3)c(CN[C@@H](C(=O)O)[C@H](C)O)cc2Cl)c1C"
measurement_type = "IC50"
recorded_measurement = "0.04 to 20 nM"

[[record]]
molecule = "COc1cc(OCc2cccc(-c3cccc(COc4cc(OC)c(CN(C)Cc5cncnc5)cc4Cl)c3C)c2C)c(Cl)cc1CN(C)Cc1cncnc1"
measurement_type = "IC50"
recorded_measurement = "90.1 to 1000 nM"


May I ask what IC50 has been recorded for Cc1c(OCCCN2CC[C@H](O)[C@@H](O)C2)cccc1-c1cccc(OCCCN2CC[C@H](O)[C@@H](O)C2)c1C ?
20.1 to 90 nM

May I ask what IC50 has been recorded for Cc1c(OCCCNCCCO)cccc1-c1cccc(OCCCN2CC[C@@H](O)C2)c1C ?
20.1 to 90 nM

May I ask what IC50 has been recorded for N#Cc1cncc(COc2cc(OCc3cccc(-c4cccc(COc5cc(OCc6cncc(C#N)c6)c(C(=O)NCCO)cc5Cl)c4Cl)c3Cl)c(Cl)cc2C(=O)O)c1 ?
0.04 to 20 nM

May I ask what IC50 has been recorded for C[C@@](CO)(NCc1cc(Cl)c(OCc2cccc(-c3cccc(COc4cc(OCc5cncc(C#N)c5)c(CN[C@@](C)(CO)C(=O)O)cc4Cl)c3Cl)c2Cl)cc1OCc1cncc(C#N)c1)C(=O)O ?
0.04 to 20 nM

May I ask what IC50 has been recorded for CC(=O)N1CCN(CCCOc2cccc(-c3cccc(OCCCN4CC[C@@H](O)C4)c3C)c2C)CC1 ?
20.1 to 90 nM

May I ask what IC50 has been recorded for CC(=O)NCCNCCCOc1cccc(-c2cccc(OCCCN3CC[C@@H](O)C3)c2C)c1C ?
20.1 to 90 nM

May I ask what IC50 has been recorded for Cc1c(OCCCN2CC[C@@H](O)C2)cccc1-c1cccc(OCCCN2CC[C@@H](O)C2)c1C(F)(F)F [Example 3026, TFA] ?
90.1 to 1000 nM

May I ask what IC50 has been recorded for Cc1c(COc2cc(OCc3cncc(C#N)c3)c(CN[C@@H](CCO)C(=O)O)cc2Cl)cccc1-c1cccc(COc2cc(OCc3cncc(C#N)c3)c(CN[C@@H](CCO)C(=O)O)cc2Cl)c1C ?
0.04 to 20 nM

Cited source for all entries: patent US10144706B2
